meta.source: paper PMC10413460

# TGT: epidermal growth factor receptor tyrosine kinase (EGFR-TK) (Homo sapiens)
# Sequence (P00533 669-1210 limits assumed): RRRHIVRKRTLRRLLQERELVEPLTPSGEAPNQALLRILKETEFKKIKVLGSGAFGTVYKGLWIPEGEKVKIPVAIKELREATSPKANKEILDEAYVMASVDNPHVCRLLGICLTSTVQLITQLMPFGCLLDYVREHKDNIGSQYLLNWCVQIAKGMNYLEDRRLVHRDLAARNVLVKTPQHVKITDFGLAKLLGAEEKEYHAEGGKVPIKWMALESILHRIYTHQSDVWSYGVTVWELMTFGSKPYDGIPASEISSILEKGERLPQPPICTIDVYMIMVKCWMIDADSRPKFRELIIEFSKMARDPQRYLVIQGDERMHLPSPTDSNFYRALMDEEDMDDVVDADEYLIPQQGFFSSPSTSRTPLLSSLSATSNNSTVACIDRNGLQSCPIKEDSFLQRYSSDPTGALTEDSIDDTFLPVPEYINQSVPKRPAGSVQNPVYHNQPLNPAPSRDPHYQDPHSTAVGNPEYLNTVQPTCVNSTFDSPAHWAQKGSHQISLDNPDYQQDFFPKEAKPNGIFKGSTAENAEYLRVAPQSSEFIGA
pIC50: −log10 of the molar value.
ASSAY READOUT: pIC50

{"COMPOUND": "COC(=O)[C@@]12OC[C@]34[C@H]([C@@H](O)[C@@H]1O)[C@@]1(C)CC(=O)C(O)=C(C)[C@@H]1C[C@H]3OC(=O)[C@H](OC(=O)C=C(C)C)[C@@H]24 [brusatol]", "TEST RESULT": 6.48}
